# tested on: Beta-lactamase (Escherichia coli K-12, UniProt P00811)
# Sequence (P00811 whole entry): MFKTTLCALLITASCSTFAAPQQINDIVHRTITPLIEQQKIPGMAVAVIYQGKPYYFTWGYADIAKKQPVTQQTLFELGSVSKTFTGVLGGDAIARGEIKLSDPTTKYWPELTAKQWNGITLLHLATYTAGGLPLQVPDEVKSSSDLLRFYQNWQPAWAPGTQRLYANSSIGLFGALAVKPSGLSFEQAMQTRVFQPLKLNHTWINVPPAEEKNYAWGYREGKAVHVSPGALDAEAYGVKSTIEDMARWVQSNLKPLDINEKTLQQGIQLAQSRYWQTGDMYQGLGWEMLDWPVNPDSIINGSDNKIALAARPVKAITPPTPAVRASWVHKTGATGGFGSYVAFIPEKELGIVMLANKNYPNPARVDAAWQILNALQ
# assay info: Inhibitory activity against Amp C beta-Lactamase
# reported IC50; entries follow
Write down the numeric answer in µM and omit the unit.

State, in one line, measured IC50 of CC(=O)c1c(O)c(C)c(O)c(Cc2c(O)c3c(c(C(=O)/C=C/c4ccccc4)c2O)OC(C)(C)C=C3)c1O [ROTTLERIN] 1.2

====

# tested on: Beta-lactamase (Escherichia coli K-12, UniProt P00811)
# assay info: Inhibitory activity against Beta-lactamase from DMSO stock was determined
reported metric: IC50

# return recorded IC50 for entry COC(=O)C1=C(C)NC(C)=C(C(=O)OCCN(C)Cc2ccccc2)C1c1cccc([N+](=O)[O-])c1 (stereo unspecified) 20 µM

====

# tested on: Beta-lactamase (Escherichia coli K-12, UniProt P00811)
# assay info: Inhibitory activity against Amp C beta-Lactamase
reported metric: IC50 (µM)
Only the number, expressed in µM, is required.

A selection of reference data follows.
Give the reported IC50 for this compound. Clc1ccc(CSC(Cn2ccnc2)c2ccc(Cl)cc2Cl)cc1 (stereo not drawn) 14

Consider the compound `O=C1NCc2c1c1c3ccccc3[nH]c1c1[nH]c3ccccc3c21` . State its measured IC50. 8

New cases:
Consider the compound COC(=O)C1=C(C)NC(C)=C(C(=O)OCCN(C)Cc2ccccc2)C1c1cccc([N+](=O)[O-])c1 (stereo not drawn) . State its measured IC50. 20
